Hey, just so you know, these numbers are from the supplement of paper PMC9170038.

Test system: K4 kissing-loop RNA reporter;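 also: bound reporter read as fluorescence of individual clusters on recovered sequencing chips by microscopy, with normalized cluster intensities fitted with a binding model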
procedure_text: apparent KD of K4 kissing-loop reporter; higher = weaker reporter binding
condition_summary: Eterna round: R107; input ligand: theophylline 20 uM
Decide by apparent KD of K4 kissing-loop reporter: equal to or exceeding 0.1 µM means Condition met, less means Condition not met.

# check: apparent KD of K4 kissing-loop reporter of GCUGAGGAGUGAUGUUCCAAGUGAUGUUAACGAGGACCGGUACGGCCGCCACUCGAUACGGCCGGACCGUAAGAUAAACUACAGC [Same State - Tryptophan A (Freestyle 7)] is greater than or equal to 0.1 µM
Condition met

# check: apparent KD of K4 kissing-loop reporter of GGAUAGGACAGAGGAUAUGGACAGUCUACAAAGUAGGCUGAAAAUCCUUGAAUGGAAGUGAUGUUUCCAGAAGGCUGUCCUAUCG [FmnBX 20 - #SwitchBubble #StaticStem #Palindromic] is greater than or equal to 0.1 µM
Condition met

# check: apparent KD of K4 kissing-loop reporter of GAUGAACUAUUCGAUACCAGACUACAUGAGUGAUGUUCAUGUGUGUCAAUGUCUAUGUCAGUCCCUUGGCAGCGAAUAGUUUAUC [KL-XTheo-B27] is greater than or equal to 0.1 µM
Condition met

# check: apparent KD of K4 kissing-loop reporter of AUUAAGAUAUGAGUGAUGUUUAUGUCCGAAGGAGCGUGCGAAAGUACAGGUAGGUCGCGGAUGUGAGUGAUGUUUAUGUAAGCGU [KL-XArg-A15 #analogue] is greater than or equal to 0.1 µM
Condition not met

# check: apparent KD of K4 kissing-loop reporter of GAUUCAGUGAUGUUGGAAGGCGAGCGGGAUACCAGCCAAGACUCAGGCCCUUGGCAGCCCACAUAUCCCACGUAGAUAGUAGCUC [Same State - Theophylline A (Freestyle 13)] is greater than or equal to 0.1 µM
Condition met
